For each of the molecules below, state its MIC.
# Tested on: P. aeruginosa PAO1
# test_method_notes: MIC determination, broth microdilution (CLSI)
# Format: cell-based
# stated_conditions: Pseudomonas aeruginosa, PAO1, strain 6
Quick note: give the figure in µg/mL, leave out the unit.

Query :: Look at this molecule and give its reported MIC. CC1(C)[C@H](NC(=O)/C(=N\O[C@@H](COc2ccc(C(=N)NCC3CCCCN3)cc2)C(=O)O)c2csc(N)n2)C(=O)N1OS(=O)(=O)O (stereo partly drawn)
Result :: 2

Query :: Param item = CC1(C)[C@H](NC(=O)/C(=N\OCCOc2ccc(C(=N)NCC[N+]3(C)CCCC3)cc2)c2csc(N)n2)C(=O)N1OS(=O)(=O)O.O=C([O-])C(F)(F)F ; retrieve measured MIC.
Result :: 8

Query :: // returns reported MIC for input CC1(C)[C@H](NC(=O)/C(=N\OCCOc2ccc(C(=N)NC(CN)CN)cc2)c2csc(N)n2)C(=O)N1OS(=O)(=O)O
Result :: 1

* * *

# System: M. catarrhalis ICB489
# test_method_notes: MIC determination, broth microdilution (CLSI)
# Type: cell-based
# stated_conditions: Moraxella catarrhalis, ICB489, strain 12
API: label(entry) gives true if the entry's MIC is strictly smaller than 0.5 µg/mL; on equality or larger values it gives false.

Query :: Check if MIC falls below 0.5 µg/mL for Cc1cc(OCCO/N=C(\C(=O)N[C@@H]2C(=O)N(OS(=O)(=O)O)C2(C)C)c2csc(N)n2)ccc1C(=N)N .
Result :: true

Query :: In the record for C[C@@H]1[C@H](NC(=O)/C(=N\OCCOc2ccc(C(=N)N)cc2)c2csc(N)n2)C(=O)N1S(=O)(=O)O , is MIC less than 0.5 µg/mL?
Result :: true

Query :: Confirm or reject: MIC of C[C@H]1[C@H](NC(=O)/C(=N\OCCOc2ccc(C(=N)N)c(O)c2)c2csc(N)n2)C(=O)N1S(=O)(=O)O lies strictly below 0.5 µg/mL
Result :: true

Query :: Is MIC strictly under 0.5 µg/mL for the entry C[C@H]1[C@H](NC(=O)/C(=N\OCCOc2nc(C(=N)N)cs2)c2csc(N)n2)C(=O)N1S(=O)(=O)O ?
Result :: true

Query :: Is 0.5 µg/mL strictly greater than the compound's reported MIC? compound: C[C@H]1[C@H](NC(=O)/C(=N\OCCOc2cnc(C(=N)N)cn2)c2csc(N)n2)C(=O)N1S(=O)(=O)O
Result :: true

Query :: Given the entry CC1(C)[C@H](NC(=O)/C(=N\OCCSc2ccc(C(=N)N)cc2)c2csc(N)n2)C(=O)N1OS(=O)(=O)O , would its reported MIC be below 0.5 µg/mL?
Result :: true

Query :: In plain terms, does CC1(C)[C@H](NC(=O)/C(=N\OCCOc2cc(C(=N)N)ccn2)c2csc(N)n2)C(=O)N1OS(=O)(=O)O come in under 0.5 µg/mL for MIC?
Result :: true

Query :: Here's an entry: C[C@H]1[C@H](NC(=O)/C(=N\OCCOc2ccc(C(=N)N)cc2)c2csc(N)n2)C(=O)N1OCS(=O)(=O)O . Is its MIC below 0.5 µg/mL?
Result :: true

Query :: Bench note: check whether C[C@H]1[C@H](NC(=O)/C(=N\OCc2cc(C(=N)N)cs2)c2csc(N)n2)C(=O)N1S(=O)(=O)O shows MIC below 0.5 µg/mL
Result :: false

Query :: Does the reported MIC of the following compound sit strictly below 0.5 µg/mL? C[C@H]1[C@H](NC(=O)/C(=N\OCCOc2ccc(C(=N)N)cc2N)c2csc(N)n2)C(=O)N1S(=O)(=O)O
Result :: false

Query :: Lab note: confirm whether the reported MIC for this compound is below 0.5 µg/mL, equality not counting. compound: Cc1cc(OCCO/N=C(\C(=O)N[C@@H]2C(=O)N(S(=O)(=O)O)[C@H]2C)c2csc(N)n2)ccc1C(=N)N
Result :: true

Query :: For C[C@H]1[C@H](NC(=O)/C(=N\OCC(C)(C)Oc2ccc(C(=N)N)cc2)c2csc(N)n2)C(=O)N1S(=O)(=O)O , is the recorded MIC below the cut-off of 0.5 µg/mL?
Result :: false

Query :: Please check: MIC for C[C@H]1[C@H](NC(=O)/C(=N\OCCOc2ccc(C(=N)N)cc2)c2csc(N)n2)C(=O)N1S(=O)(=O)O , strictly under 0.5 µg/mL or not?
Result :: true

* * *

I'd be grateful if you could share measured MIC for these entries.
# System: H. influenzae ATCC 49247
# test_method_notes: MIC determination, broth microdilution (CLSI)
# Type: cell-based
# stated_conditions: Haemophilus influenzae, ATCC49247, strain 12; broth microdilution; read-out: MIC strain 12 (H. influenzae ATCC 49247)
API: value field is a number in µg/mL; no unit string.

Query :: Item C[C@H]1[C@H](NC(=O)/C(=N\OCCOc2ccc(NC(=N)N)cc2)c2csc(N)n2)C(=O)N1S(=O)(=O)O [Example 50] with H. influenzae ATCC 49247 - MIC?
Result :: 0.25

Query :: // lookup MIC | system=H. influenzae ATCC 49247 | key= CN(C)C(=O)[C@@H]1C[C@H](NC(=N)c2ccc(OCCO/N=C(\C(=O)N[C@@H]3C(=O)N(OS(=O)(=O)O)C3(C)C)c3csc(N)n3)cc2)CN1 [Example 42]
Result :: 0.25

Query :: Fill in the recorded MIC for this molecule, with H. influenzae ATCC 49247 as test system: CC1(C)[C@H](NC(=O)/C(=N\O[C@H](COc2ccc(C(=N)NCCNc3ncccn3)cc2)C(=O)O)c2csc(N)n2)C(=O)N1OS(=O)(=O)O [Example 111]
Result :: 0.25

Query :: Which measured MIC belongs to CNC(=N)c1ccc(OCCO/N=C(\C(=O)N[C@@H]2C(=O)N(S(=O)(=O)O)[C@H]2C)c2csc(N)n2)cc1 [Example 68] , tested on H. influenzae ATCC 49247?
Result :: 0.125

Query :: MIC of C[C@H]1[C@H](NC(=O)/C(=N\OCCOc2ccc(CC(=N)N)cc2)c2csc(N)n2)C(=O)N1S(=O)(=O)O [Example 62] on H. influenzae ATCC 49247?
Result :: 0.25

Query :: Value wanted: MIC (H. influenzae ATCC 49247) of entry C[C@H]1[C@H](NC(=O)/C(=N\OCCOc2ccc(C(=N)N)cc2CO)c2csc(N)n2)C(=O)N1S(=O)(=O)O [Example 59]
Result :: 1

Query :: Find MIC (H. influenzae ATCC 49247) for the entry C[C@H]1[C@H](NC(=O)/C(=N\OCCOc2ccc(C(=N)N)cc2)c2nc(N)sc2Cl)C(=O)N1S(=O)(=O)O [Example 61]
Result :: 0.25

Query :: Field: MIC (H. influenzae ATCC 49247). Entry: Cc1sc(C(=N)N)nc1OCCO/N=C(\C(=O)N[C@@H]1C(=O)N(OS(=O)(=O)O)C1(C)C)c1csc(N)n1 [Example 74]
Result :: 0.25

Query :: Please provide the recorded MIC for CC1(C)[C@H](NC(=O)/C(=N\OC(CO)COc2ccc(C(=N)N)cc2)c2csc(N)n2)C(=O)N1OS(=O)(=O)O (mixture of isomers) [Example 45B] , tested on H. influenzae ATCC 49247.
Result :: 0.5

Query :: What is its MIC for H. influenzae ATCC 49247? Entry: C[C@H]1[C@H](NC(=O)/C(=N\OCc2ccc(C(=N)N)cc2)c2csc(N)n2)C(=O)N1S(=O)(=O)O [Example 55]
Result :: 1

Query :: Lab note: need MIC for CC(=N)N1CC[C@H](NC(=N)c2ccc(OCCO/N=C(\C(=O)N[C@@H]3C(=O)N(OS(=O)(=O)O)C3(C)C)c3csc(N)n3)cc2)C1 [Example 43] on H. influenzae ATCC 49247, anyone have it?
Result :: 0.125

* * *

Field: strain 6 MIC. Provide a value for each of the compounds that follow.
# Test system: P. aeruginosa PAO1
# test_method_notes: MIC determination, broth microdilution (CLSI)
# Type: cell-based
# stated_conditions: strain 6
Give a bare numeral; the unit µg/mL is implied.

Query :: Consider the compound CC1(C)[C@H](NC(=O)/C(=N\O[C@@H](COc2ccc(C(=N)NC3CC3N)cc2)C(=O)O)c2csc(N)n2)C(=O)N1OS(=O)(=O)O (single isomer, unassigned) [Example 100B] and give its measured strain 6 MIC.
Result :: 16

Query :: Reported strain 6 MIC for CC1(C)[C@H](NC(=O)/C(=N\OC(COc2ccc(C(=N)N)cc2)C(=O)O)c2csc(N)n2)C(=O)N1OS(=O)(=O)O (mixture of isomers) [Example 27B] : what is it?
Result :: 16

Query :: Which strain 6 MIC is listed for CC1(C)[C@H](NC(=O)/C(=N\OC(COc2ccc(C(=N)N)cc2)C(=O)O)c2csc(N)n2)C(=O)N1OS(=O)(=O)O (mixture of isomers) [Example 27A] ?
Result :: 4
